Items are presented alongside their recorded specificity ELISA, fold over background.
study-target: T1, COVID S1 RBM Fc fusion (Antigen 2) (SARS-CoV-2, UniProt P0DTC2 437-508)
T1 construct: domain: RBM
method: phage ELISA

binder	specificity ELISA, fold over background
SARS-CoV-2 variant 1-24 (antibody, V domains shown) VH: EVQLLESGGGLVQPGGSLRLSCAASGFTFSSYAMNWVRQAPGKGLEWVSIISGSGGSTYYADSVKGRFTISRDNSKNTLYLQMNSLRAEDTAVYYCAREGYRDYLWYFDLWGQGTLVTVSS VL: QSALTQPASVSGSPGQSITISCTGTSSDVGYYNLVSWYQQHPGKAPKLMIYEGNKRPSGVSNRFSGSKSGNTASLTISGLQAEDEADYYCCSYAGGSVVFGGGTKLTVL	1.3 fold over background
SARS-CoV-2 variant 1-30 (antibody, V domains shown) VH: EVQLLESGGGLVQPGGSLRLSCAASGFTFSSYAMTWVRQAPGKGLEWVSAISGSGGSTFYADSVKGRFTISRDNSKNTLYLQMNSLRAEDTAVYYCTRPPYGDYGDYWGQGTLVTVSS VL: QSALTQPASVSGSPGQSITISCTGTSRDVGSYNLVSWYQQHPGKAPKLMIYEGTKRPSGVSNRFSGSKSGNTASLTISGLQAEDEADYYCCSYAGSRTPVVFGGGTKLTVL	1.4 fold over background
SARS-CoV-2 variant 1-49 (antibody, V domains shown) VH: EVQLLESGGGLVQPGGSLRLSCAASGFTFSSYAMYWVRQAPGKGLEWVSAISGSAGSTYYADSVKGRFTISRDNSKNTLYLQMNSLRAEDTAVYYCARDTNDFWGQGTLVTVSS VL: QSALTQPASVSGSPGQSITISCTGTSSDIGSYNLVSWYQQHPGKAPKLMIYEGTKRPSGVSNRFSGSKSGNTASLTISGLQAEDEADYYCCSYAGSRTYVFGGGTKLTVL	0.8 fold over background
